Here the recorded protein stability index is given for each entry.
B1: TMEM40 (parent)
chain: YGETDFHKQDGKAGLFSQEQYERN

# Variants of: B1
# ASSAY_REMARKS: protein stability index of a GFP-peptide fusion (GPS, HEK-293T) (PSI 1-6); higher = more stable;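 note: lentivirally expressed fusions sorted by FACS into six bins by GFP to DsRed ratio, PSI derived from sequencing read proportions per bin multiplied by bin number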
# CONDITION_LABEL: c terminus: a fixed tail appended
// print number alone

Data point: Q20A ; protein stability index = 4.32

protein stability index measured on K12A = 4.25

In plain terms, Q20I has a documented protein stability index of 3.85
